- test target: Prostaglandin G/H synthase 1 (Ovis aries, UniProt P05979)
- Sequence (P05979 whole entry): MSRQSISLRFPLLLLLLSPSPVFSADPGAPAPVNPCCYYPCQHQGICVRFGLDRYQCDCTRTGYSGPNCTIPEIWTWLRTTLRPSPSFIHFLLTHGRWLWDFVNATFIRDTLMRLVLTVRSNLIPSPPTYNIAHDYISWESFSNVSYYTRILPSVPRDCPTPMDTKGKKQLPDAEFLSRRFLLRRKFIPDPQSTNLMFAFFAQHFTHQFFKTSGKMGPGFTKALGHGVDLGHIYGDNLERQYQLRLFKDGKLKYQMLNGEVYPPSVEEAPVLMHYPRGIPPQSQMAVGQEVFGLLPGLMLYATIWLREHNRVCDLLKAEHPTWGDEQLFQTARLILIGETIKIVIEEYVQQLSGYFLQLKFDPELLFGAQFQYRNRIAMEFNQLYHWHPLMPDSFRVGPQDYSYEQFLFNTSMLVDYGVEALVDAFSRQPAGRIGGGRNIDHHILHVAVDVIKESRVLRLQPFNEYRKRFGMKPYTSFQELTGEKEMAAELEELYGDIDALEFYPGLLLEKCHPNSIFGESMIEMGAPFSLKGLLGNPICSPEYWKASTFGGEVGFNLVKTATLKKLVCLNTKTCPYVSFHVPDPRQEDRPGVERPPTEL
pIC50: −log10 of the molar value.
Parameter threshold = 4. Response is yes (1) when pIC50 meets or exceeds it, else no (0).

>  <item smiles>
NS(=O)(=O)c1ccc(-n2nc(C(F)(F)F)cc2-c2cccc(Cl)c2)cc1CO

>  <qualitative label>
no (0)

$$$$
>  <item smiles>
CCC(=O)OCc1cc(-n2nc(C(F)(F)F)cc2-c2ccc(C)cc2)ccc1S(N)(=O)=O

>  <qualitative label>
yes (1)

$$$$
>  <item smiles>
CCOc1ccc(-c2cc(C(F)(F)F)nn2-c2ccc(S(N)(=O)=O)c(CO)c2)cc1

>  <qualitative label>
no (0)

$$$$
>  <item smiles>
NS(=O)(=O)c1ccc(-n2nc(C(F)(F)F)cc2-c2ccccc2F)cc1CO

>  <qualitative label>
no (0)

$$$$
>  <item smiles>
CCc1ccc(-c2cc(C(F)(F)F)nn2-c2ccc(S(N)(=O)=O)c(CO)c2)cc1

>  <qualitative label>
no (0)

$$$$
>  <item smiles>
COc1ccc(-c2cc(C(F)(F)F)nn2-c2ccc(S(N)(=O)=O)c(CO)c2)cc1

>  <qualitative label>
yes (1)

$$$$

====

- test target: Prostaglandin G/H synthase 2 (Homo sapiens, UniProt P35354)
- Sequence (P35354 whole entry): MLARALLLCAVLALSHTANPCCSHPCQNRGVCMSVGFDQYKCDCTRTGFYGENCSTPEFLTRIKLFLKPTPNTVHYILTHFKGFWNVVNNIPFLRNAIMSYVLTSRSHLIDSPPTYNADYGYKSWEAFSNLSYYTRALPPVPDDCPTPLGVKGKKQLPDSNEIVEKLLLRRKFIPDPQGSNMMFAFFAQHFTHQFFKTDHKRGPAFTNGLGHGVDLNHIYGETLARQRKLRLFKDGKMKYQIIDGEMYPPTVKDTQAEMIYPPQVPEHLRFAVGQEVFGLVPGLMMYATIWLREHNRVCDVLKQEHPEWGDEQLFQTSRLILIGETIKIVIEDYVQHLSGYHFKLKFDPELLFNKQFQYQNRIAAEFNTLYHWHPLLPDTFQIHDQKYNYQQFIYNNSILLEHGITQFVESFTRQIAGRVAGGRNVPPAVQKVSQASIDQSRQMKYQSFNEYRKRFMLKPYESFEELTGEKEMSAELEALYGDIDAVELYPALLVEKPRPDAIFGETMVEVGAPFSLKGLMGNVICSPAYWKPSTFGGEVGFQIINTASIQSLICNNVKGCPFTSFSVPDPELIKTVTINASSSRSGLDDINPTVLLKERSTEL
- method description: Inhibitory activity against human Prostaglandin G/H synthase 2 expressed in sf-9 cells infected with baculovirus
Binning scheme for IC50: bucket A (below 1000 nM), bucket B (1000 nM to below 7000 nM), bucket C (7000 nM or more)

>  <item smiles>
CSc1ccc(-c2cc(C(F)(F)F)nn2-c2ccc(S(N)(=O)=O)c(CO)c2)cc1

>  <qualitative label>
bucket A

$$$$
>  <item smiles>
COc1ccccc1-c1cc(C(F)(F)F)nn1-c1ccc(S(N)(=O)=O)c(CO)c1

>  <qualitative label>
bucket C

$$$$
>  <item smiles>
CC(=O)NCc1cc(-n2nc(C(F)(F)F)cc2-c2ccc(Cl)cc2)ccc1S(N)(=O)=O

>  <qualitative label>
bucket B

$$$$
>  <item smiles>
NS(=O)(=O)c1ccc(-n2nc(C(F)(F)F)cc2-c2ccc(F)cc2)cc1CO

>  <qualitative label>
bucket B

$$$$
>  <item smiles>
CCc1ccc(-c2cc(C(F)(F)F)nn2-c2ccc(S(N)(=O)=O)c(CO)c2)cc1

>  <qualitative label>
bucket B

$$$$
>  <item smiles>
Cc1ccc(-c2cc(C(F)(F)F)nn2-c2ccc(S(N)(=O)=O)c(CO)c2)cc1

>  <qualitative label>
bucket A

$$$$
>  <item smiles>
COc1ccc(-c2cc(C(F)(F)F)nn2-c2ccc(S(N)(=O)=O)c(CNC(C)=O)c2)cc1

>  <qualitative label>
bucket B

$$$$
>  <item smiles>
CCSc1ccc(-c2cc(C(F)(F)F)nn2-c2ccc(S(N)(=O)=O)c(CO)c2)cc1

>  <qualitative label>
bucket C

$$$$

====

- test target: Prostaglandin G/H synthase 2 (Homo sapiens) (UniProt P35354)
- Sequence (P35354 whole entry): as above
- method description: Inhibitory activity of compound against human Prostaglandin G/H synthase 2 expressed in sf-9 cells infected with baculovirus at 100 uM concentration
- conditions used: Sf9
inhibition for assorted compounds

>  <compound>
COc1ccc(-c2cc(C(F)(F)F)nn2-c2ccc3c(c2)COS3(=O)=O)cc1

>  <readout units>
%

>  <inhibition>
36

$$$$
>  <compound>
Cc1ccc(-c2cc(C(F)(F)F)nn2-c2ccc3c(c2)CCS3(=O)=O)cc1

>  <readout units>
%

>  <inhibition>
10

$$$$
>  <compound>
CS(=O)(=O)c1ccc(-c2cc(C(F)(F)F)nn2-c2ccc(S(N)(=O)=O)c(CO)c2)cc1

>  <readout units>
%

>  <inhibition>
29

$$$$
>  <compound>
CSc1ccc(-c2cc(C(F)(F)F)nn2-c2ccc(S(N)(=O)=O)c(C(C)O)c2)cc1 (centres undefined)

>  <readout units>
%

>  <inhibition>
50

$$$$
>  <compound>
CC(C)Cc1ccc(-c2cc(C(F)(F)F)nn2-c2ccc(S(N)(=O)=O)c(CO)c2)cc1

>  <readout units>
%

>  <inhibition>
14

$$$$
>  <compound>
COc1ccc(-c2cc(C(F)(F)F)nn2-c2ccc(S(C)(=O)=O)c(C=O)c2)cc1

>  <readout units>
%

>  <inhibition>
100

$$$$
>  <compound>
COc1ccc(-c2cc(C(F)(F)F)nn2-c2ccc3c(c2)CCS3(=O)=O)cc1

>  <readout units>
%

>  <inhibition>
36

$$$$
>  <compound>
CSc1ccc(-c2cc(C(F)(F)F)nn2-c2ccc(S(C)(=O)=O)c(CO)c2)cc1

>  <readout units>
%

>  <inhibition>
45

$$$$
>  <compound>
COc1ccc(-c2cc(C(F)(F)F)nn2-c2ccc3c(c2)CNS3(=O)=O)cc1

>  <readout units>
%

>  <inhibition>
12

$$$$
